- testProtocol: Solubility of PFPA substrate
- Format: physicochemical
- cond: aqueous media with added acetone, aqueous with cosolvent or surfactant or cyclodextrin; with the addition of acetone
testReadout: solubility (mM)
Report only the number, with the unit mM understood.

Entry under test: CC(=O)Cc1ccc(F)cc1 [PFPA, para-fluoro phenyl acetone] . Its solubility was 60
